# Target entity: DNA gyrase (Escherichia coli) (UniProt P0AES6+P0AES4)
# Test name: Inhibition of Escherichia coli DNA gyrase super-coiling activity using relaxed pNO1 DNA as substrate assessed as enzyme residual activity at 1 uM incubated for 30 mins by fluorescence assay relative to control
# Assay type: protein-complex assay
Parameter measured: Activity (%)
Field format: number, assumed %, no unit text.

Request the reported Activity associated with C[C@@H]1CN(c2c(F)c(N)c3c(=O)c(C(=O)O)cn(C4CC4)c3c2F)C[C@H](C)[N+]12CN1C(=N2)C(C(=O)O)=Cc2ccccc21.[Cl-] (stereo not given in full)
73

----------
# Tested on: Staphylococcus aureus
# Test name: Bactericidal activity against methicillin resistant Staphylococcus aureus N315 cultured in MH medium assessed as reduction in bacterial survival incubated for 48 hrs by microbroth dilution method
# Assay type: functional
# Run parameters: N315, 48 h
Parameter measured: MBC (µg/mL)
Field format: number, assumed µg/mL, no unit text.

These solved cases illustrate the format of a correct answer.
{"columns": ["Molecule", "Target entity", "Meas value"],
 "data": [
  ["COc1c(N2CCNC(C)C2)c(F)cc2c(=O)c(C(=O)O)cn(C3CC3)c12 (stereo not given) [GATIFLOXACIN]", "Staphylococcus aureus", 0.125],
  ["CCn1cc(C(=O)O)c(=O)c2cc(F)c(N3CC[N+]4(CN5C(C)=CC(C)=C(C(=O)O)C5=N4)C(C)C3)c(F)c21.[Cl-] (stereo not given)", "Staphylococcus aureus", 128],
  ["C[C@@H]1CN(c2c(F)c(N)c3c(=O)c(C(=O)O)cn(C4CC4)c3c2F)C[C@H](C)[N+]12CN1C(=N2)C(C(=O)O)=Cc2ccccc21.[Cl-] (stereo not given in full)", "Staphylococcus aureus", 128]
]}

Request the reported MBC associated with CCn1cc(C(=O)O)c(=O)c2cnc(N3CC[N+]4(CC3)CN3C(=N4)C(C(=O)O)=Cc4ccccc43)nc21.[Cl-]
512

What do you get for COc1c(N2CC[N+]3(CN4C(=N3)C(C(=O)O)=Cc3ccccc34)C(C)C2)c(F)cc2c(=O)c(C(=O)O)cn(C3CC3)c12.[Cl-] (stereo not given) ?
32

----------
# Tested on: Streptococcus pneumoniae
# Test name: Antibacterial activity against Streptococcus pneumoniae cultured in MH medium assessed as reduction in bacterial growth incubated for 48 hrs by microbroth dilution method
# Type: functional
Output y for records whose MIC is lower than 100 µg/mL, n for records at or above 100 µg/mL.

{"columns": ["Compound", "Assigned category"],
 "data": [
  ["CCn1cc(C(=O)O)c(=O)c2cc(F)c(N3CC[N+]4(CN5C(=N4)C(C(=O)O)=Cc4ccccc45)C(C)C3)c(F)c21.[Cl-] (configuration not stated)", "n"],
  ["COc1c(N2C[C@@H]3CCCN[C@@H]3C2)c(F)cc2c(=O)c(C(=O)O)cn(C3CC3)c12", "y"],
  ["CCn1cc(C(=O)O)c(=O)c2cc(F)c(N3CC[N+]4(CC3)CN3C(C)=CC(C)=C(C(=O)O)C3=N4)nc21.[Cl-]", "n"]
]}

Given the entry CC1=CC(C)=C(C(=O)O)C2=N[N+]3(CN12)[C@H](C)CN(c1c(F)c(N)c2c(=O)c(C(=O)O)cn(C4CC4)c2c1F)C[C@@H]3C.[Cl-] (some centres not stated) , would its reported MIC be below 100 µg/mL?
n

What do you get for O=C(O)C1=Cc2ccccc2N2C[N+]3(CCN(c4cc5c(cc4F)c(=O)c(C(=O)O)cn5C4CC4)CC3)N=C12.[Cl-] ?
n

What do you get for CCn1cc(C(=O)O)c(=O)c2cc(F)c(N3CCNCC3)cc21 ?
n

What do you get for COc1c(N2CC[N+]3(CN4C(C)=CC(C)=C(C(=O)O)C4=N3)C(C)C2)c(F)cc2c(=O)c(C(=O)O)cn(C3CC3)c12.[Cl-] (configuration not stated) ?
n

What do you get for CC1=CC(C)=C(C(=O)O)C2=N[N+]3(CCN(c4cc5c(cc4F)c(=O)c(C(=O)O)cn5C4CC4)CC3)CN12.[Cl-] ?
n

What do you get for O=C(O)c1cn(C2CC2)c2cc(N3CCNCC3)c(F)cc2c1=O ?
y

What do you get for CCn1cc(C(=O)O)c(=O)c2cnc(N3CCNCC3)nc21 ?
n

What do you get for COc1c(N2CCNC(C)C2)c(F)cc2c(=O)c(C(=O)O)cn(C3CC3)c12 (configuration not stated) ?
y

----------
# Test system: Bacillus spizizenii
# Test name: Antibacterial activity against Bacillus subtilis ATCC 6633 cultured in MH medium assessed as reduction in bacterial growth incubated for 48 hrs by microbroth dilution method
# Format: functional
# Run parameters: ATCC 6633, 48 h
Parameter measured: MIC
Hi, when you answer, please include the unit after the number. Thanks!

These solved cases illustrate the format of a correct answer.
{"columns": ["Compound", "Parameter measured", "Meas value"],
 "data": [
  ["CC1=CC(C)=C(C(=O)O)C2=N[N+]3(CCN(c4cc5c(cc4F)c(=O)c(C(=O)O)cn5C4CC4)CC3)CN12.[Cl-]", "MIC", "8 µg/mL"],
  ["CCn1cc(C(=O)O)c(=O)c2cc(F)c(N3CC[N+]4(CC3)CN3C(=N4)C(C(=O)O)=Cc4ccccc43)cc21.[Cl-]", "MIC", "16 µg/mL"],
  ["CCn1cc(C(=O)O)c(=O)c2cnc(N3CC[N+]4(CC3)CN3C(=N4)C(C(=O)O)=Cc4ccccc43)nc21.[Cl-]", "MIC", "64 µg/mL"],
  ["C[C@@H]1CN(c2c(F)c(N)c3c(=O)c(C(=O)O)cn(C4CC4)c3c2F)C[C@H](C)N1", "MIC", "0.063 µg/mL"],
  ["CCn1cc(C(=O)O)c(=O)c2cc(F)c(N3CC[N+]4(CC3)CN3C(C)=CC(C)=C(C(=O)O)C3=N4)nc21.[Cl-]", "MIC", "16 µg/mL"]
]}

Request the reported MIC associated with CCn1cc(C(=O)O)c(=O)c2cc(F)c(N3CC[N+]4(CC3)CN3C(C)=CC(C)=C(C(=O)O)C3=N4)cc21.[Cl-]
16 µg/mL

What do you get for COc1c(N2CC[N+]3(CN4C(=N3)C(C(=O)O)=Cc3ccccc34)C(C)C2)c(F)cc2c(=O)c(C(=O)O)cn(C3CC3)c12.[Cl-] (configuration not stated) ?
32 µg/mL

----------
# System: Bacillus spizizenii
# Test name: Antibacterial activity against Bacillus subtilis ATCC 6633 cultured in MH medium assessed as reduction in bacterial growth incubated for 48 hrs by microbroth dilution method
# Format: functional
# Run parameters: ATCC 6633, 48 h
We begin with a simple list: items and their reported log10(MIC).
Parameter value (number): base-10 log of MIC in µg/mL.

{"columns": ["Compound", "Meas value"],
 "data": [
  ["CCn1cc(C(=O)O)c(=O)c2cc(F)c(N3CCNC(C)C3)c(F)c21 (stereo not drawn)", -0.90],
  ["CCn1cc(C(=O)O)c(=O)c2cc(F)c(N3CCNCC3)nc21", -0.90],
  ["COc1c(N2CC[N+]3(CN4C(C)=CC(C)=C(C(=O)O)C4=N3)C(C)C2)c(F)cc2c(=O)c(C(=O)O)cn(C3CC3)c12.[Cl-] (stereo not drawn)", 0.30],
  ["CCn1cc(C(=O)O)c(=O)c2cc(F)c(N3CC[N+]4(CN5C(=N4)C(C(=O)O)=Cc4ccccc45)C(C)C3)c(F)c21.[Cl-] (stereo not drawn)", -0.30],
  ["O=C(O)c1cn(C2CC2)c2cc(N3CCNCC3)c(F)cc2c1=O", -1.49],
  ["COc1c(N2C[C@@H]3CCCN[C@@H]3C2)c(F)cc2c(=O)c(C(=O)O)cn(C3CC3)c12", -1.49]
]}

Next compound, please.
Request the reported log10(MIC) associated with CCn1cc(C(=O)O)c(=O)c2cc(F)c(N3CC[N+]4(CN5C(C)=CC(C)=C(C(=O)O)C5=N4)C(C)C3)c(F)c21.[Cl-] (stereo not drawn)
0.90

----------
We begin with a simple list: items and their reported pIC50.
# Target entity: DNA gyrase (Escherichia coli, UniProt P0AES4+P0AES6)
# Test name: Inhibition of Escherichia coli DNA gyrase super-coiling activity using relaxed pNO1 DNA as substrate incubated for 30 mins by fluorescence assay
Friendly reminder that pIC50 comes from taking -log10 of the concentration in mol/L.

{"columns": ["Compound", "Target entity", "Meas value"],
 "data": [
  ["O=C(O)C1=Cc2ccccc2N2C[N+]3(CCN(c4cc5c(cc4F)c(=O)c(C(=O)O)cn5C4CC4)CC3)N=C12.[Cl-]", "DNA gyrase (Escherichia coli, UniProt P0AES4+P0AES6)", 5.22]
]}

Please state recorded pIC50 (tested on DNA gyrase (Escherichia coli, UniProt P0AES4+P0AES6)) of CCn1cc(C(=O)O)c(=O)c2cc(F)c(N3CC[N+]4(CN5C(=N4)C(C(=O)O)=Cc4ccccc45)C(C)C3)c(F)c21.[Cl-] (configuration not stated)
5.61
